The measurements presented in this section are drawn from PubChem BioAssay (NCI).

Please go through the items and note down their growth.
- Test system: SK-MEL-5 melanoma
- Test protocol: NCI-60 one-dose screen, 48 h (100 = growth as untreated, 0 = no growth, -100 = all killed)
- Condition label: 10 µM unless noted
The panel holds about 83,000 compounds, 20% with a hit somewhere; the sample as a whole holds those more often.
Give bare numbers, in %.

// below: answered compounds
- Compound: "NC(=O)NCCCC(N)C(=O)O (stereo not given)"
  growth (%): 113
- Compound: "O=C1C=C(Nc2ccccc2)c2ccccc2C1=O"
  growth (%): 74.2
- Compound: "CC(C)NC(=O)N/C=C(\\C#N)C(N)=O"
  growth (%): 101
- Compound: "COc1ccc2cc1Oc1ccc(cc1)C[C@H]1c3cc(c(OC)cc3CCN1C)Oc1c(OC)c(OC)cc3c1[C@H](C2)N(C)CC3"
  growth (%): 21.1

Lab note: record growth of `ClCCOCCOc1ccc(C2CCCCC2)cc1` tested on SK-MEL-5 melanoma.
98.8
